Data provenance: patent US5872281A

Molecular target: LTA4 hydrolase (Cavia porcellus)
Sequence (P19602 1-611): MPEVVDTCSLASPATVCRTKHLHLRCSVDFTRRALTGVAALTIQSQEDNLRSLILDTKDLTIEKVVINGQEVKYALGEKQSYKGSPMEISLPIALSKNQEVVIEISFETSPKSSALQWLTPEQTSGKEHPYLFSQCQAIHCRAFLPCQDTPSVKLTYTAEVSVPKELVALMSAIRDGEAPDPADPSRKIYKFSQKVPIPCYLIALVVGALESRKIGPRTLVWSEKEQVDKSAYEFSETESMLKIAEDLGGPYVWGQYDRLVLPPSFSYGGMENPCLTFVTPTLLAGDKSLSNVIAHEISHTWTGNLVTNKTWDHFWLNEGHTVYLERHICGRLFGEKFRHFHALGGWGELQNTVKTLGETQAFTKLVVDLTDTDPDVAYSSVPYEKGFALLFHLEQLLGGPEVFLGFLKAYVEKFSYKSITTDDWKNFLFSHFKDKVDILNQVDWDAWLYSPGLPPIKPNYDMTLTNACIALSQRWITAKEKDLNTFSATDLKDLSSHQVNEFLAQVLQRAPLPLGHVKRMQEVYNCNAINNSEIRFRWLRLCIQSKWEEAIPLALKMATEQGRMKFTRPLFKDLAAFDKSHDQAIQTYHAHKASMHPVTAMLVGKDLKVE
IC50 values for the compounds below.
Your answer is read as µM, so omit the unit and give the number.

C[C@@H](CS)C(=O)N[C@@H](CSCc1ccc(N(C)C)cc1)C(=O)O [Compound No. 3-21] | 1.5
CCN(CC)c1ccc(CSC[C@H](NC(=O)[C@H](C)CS)C(=O)O)cc1 [Compound No. 3-9] | 0.9

Here's the next entry for you.
Ask: Form field: reported IC50 of CC(C)C(CS)C(=O)N[C@@H](CSCc1ccc(N(C)C)cc1)C(=O)O (mixture of isomers) [Compound No. 3-24]
Result: 1.1
